# studySystem: activated ERK2 (Homo sapiens (Human), UniProt P28482)
# Sequence (P28482 whole entry): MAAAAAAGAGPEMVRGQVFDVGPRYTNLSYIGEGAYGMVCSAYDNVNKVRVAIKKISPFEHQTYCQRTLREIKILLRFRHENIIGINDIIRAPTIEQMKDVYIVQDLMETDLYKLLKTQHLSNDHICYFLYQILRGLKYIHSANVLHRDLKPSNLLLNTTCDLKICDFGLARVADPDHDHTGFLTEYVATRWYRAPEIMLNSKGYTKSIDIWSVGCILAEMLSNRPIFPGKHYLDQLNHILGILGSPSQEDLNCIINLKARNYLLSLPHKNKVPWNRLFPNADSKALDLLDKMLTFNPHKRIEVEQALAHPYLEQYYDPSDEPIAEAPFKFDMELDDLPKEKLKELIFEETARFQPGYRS
# protocolText: Activated ERK2 (20 pM) Kinase Assay (AlphaScreen, ERKtide phosphorylation)
# Format: biochemical
# setupConditions: 0.02 nM ERK2, 400 nM ERKtide peptide, 35 μM ATP, 30 min preincubation
metricName: IC50 (nM)

Worked set:
[
  {
    "compound": "Cc1cnccc1-c1cnc(N)c(-c2ccc(C(=O)N[C@H](CO)c3ccccc3)c(F)c2)n1",
    "studySystem": "activated ERK2 (Homo sapiens (Human), UniProt P28482)",
    "IC50 (nM)": 0.364
  },
  {
    "compound": "CNC[C@@H](NC(=O)c1ccc(-c2nc(C3CCOCC3)cnc2N)cc1F)c1cccc(Cl)c1",
    "studySystem": "activated ERK2 (Homo sapiens (Human), UniProt P28482)",
    "IC50 (nM)": 0.0282
  },
  {
    "compound": "NC[C@@H](NC(=O)c1ccc(-c2nc(C3CCOCC3)cnc2N)cc1F)c1cc(F)cc(I)c1",
    "studySystem": "activated ERK2 (Homo sapiens (Human), UniProt P28482)",
    "IC50 (nM)": 0.00612
  },
  {
    "compound": "CO[C@H]1CC[C@H](c2cnc(N)c(-c3ccc(C(=O)N[C@H](CN)c4cc(F)cc(I)c4)c(F)c3)n2)CC1",
    "studySystem": "activated ERK2 (Homo sapiens (Human), UniProt P28482)",
    "IC50 (nM)": 0.0107
  },
  {
    "compound": "C[C@@H](NC(=O)c1ccc(-c2cc([C@H]3CCC(=O)N(C)C3)cnc2N)cc1F)c1cccc(Cl)c1",
    "studySystem": "activated ERK2 (Homo sapiens (Human), UniProt P28482)",
    "IC50 (nM)": 1.3
  },
  {
    "compound": "NC[C@@H](NC(=O)c1ccc(-c2nc(C3CCOCC3)cnc2N)cc1F)c1cccc(Br)c1",
    "studySystem": "activated ERK2 (Homo sapiens (Human), UniProt P28482)",
    "IC50 (nM)": 0.02
  },
  {
    "compound": "Cc1nn(C)cc1-c1cnc(N)c(-c2ccc(C(=O)N[C@H](CO)c3cccc(Cl)c3)c(F)c2)n1",
    "studySystem": "activated ERK2 (Homo sapiens (Human), UniProt P28482)",
    "IC50 (nM)": 0.0604
  },
  {
    "compound": "Nc1ncc(C2CCOCC2)cc1-c1ccc(C(=O)N[C@H](CO)c2ccccc2)c(F)c1",
    "studySystem": "activated ERK2 (Homo sapiens (Human), UniProt P28482)",
    "IC50 (nM)": 0.879
  }
]

a = Cn1nncc1-c1cnc(N)c(-c2ccc(C(=O)N[C@H](CO)c3cc(F)cc(Br)c3)c(F)c2)c1
b = Cc1c(-c2cnc(N)c(-c3ccc(C(=O)N[C@H](CO)c4cccc(C(F)F)c4)c(F)c3)c2)cnn1C(F)F
Problem: Determine, for a and b , which has the greater value of IC50. Label of pick, please.
Solution: b
(b: 0.0745 nM, a: 0.031 nM)

I = NC[C@@H](NC(=O)c1ccc(-c2nc(C3CCCC(O)C3)cnc2N)cc1F)c1cccc(Cl)c1 (single isomer, unassigned) [Example 368]
II = C[C@@H]1COCCN1c1cnc(N)c(-c2ccc(C(=O)N[C@H](CO)c3ccccc3)c(F)c2)c1
III = Nc1ncc([C@H]2CC[C@H](O)[C@H](F)C2)nc1-c1ccc(C(=O)N[C@H](CO)c2cc(F)cc(Br)c2)c(F)c1
IV = Nc1ncc(C2CCNC(=O)C2)cc1-c1ccc(C(=O)N[C@H](CO)c2cccc(Cl)c2)c(F)c1 (mixture of isomers)
V = CSc1cc(F)cc([C@@H](CO)NC(=O)c2ccc(-c3cc(-c4cn(C)nc4C)cnc3N)cc2F)c1
Problem: Kindly order the items shown according to IC50, from the highest value down. Answer by listing the labels in the requested order.
Solution: II, IV, I, III, V

P = COCCn1cc(-c2cnc(N)c(-c3ccc(C(=O)N[C@H](CO)c4cccc(Cl)c4)c(F)c3)c2)cn1
Q = Nc1ncc([C@H]2CC[C@@H](O)CC2)nc1-c1ccc(C(=O)N[C@H](CO)c2cccc(C(F)(F)F)c2)c(F)c1
R = Nc1ncc(C2CCOCC2)nc1-c1ccc(C(=O)N[C@H](CO)c2cc(F)cc(C(F)F)c2)c(F)c1
S = Nc1ncc([C@H]2CC[C@H](O)CC2)nc1-c1ccc(C(=O)N[C@H](CO)c2cc(F)cc(C(F)F)c2)c(F)c1
T = Nc1ncc([C@@H]2CCC(F)(F)[C@H](O)C2)nc1-c1ccc(C(=O)N[C@H](CO)c2cccc(Cl)c2)c(F)c1
Problem: Kindly order the items shown according to IC50, from the highest value down. Answer by listing the labels in the requested order.
Solution: Q, T, P, S, R

1 = Nc1ncc([C@H]2CC[C@H](O)CC2)nc1-c1ccc(C(=O)N[C@H](CO)c2cc(F)cc(I)c2)c(F)c1
2 = CSc1cc(F)cc([C@@H](CO)NC(=O)c2ccc(-c3nc([C@H]4CC[C@H](O)CC4)cnc3N)cc2F)c1
Problem: Determine, for 1 and 2 , which has the greater value of IC50. Label of pick, please.
Solution: 2

P = Cn1cc(-c2cnc(N)c(-c3ccc(C(=O)N[C@H](CO)c4ccc(F)c(Cl)c4)c(F)c3)c2)cn1
Q = Cn1cc(-c2cnc(N)c(-c3ccc(C(=O)N[C@H](CO)c4cc(F)cc(CF)c4)c(F)c3)c2)cn1
R = NC[C@@H](NC(=O)c1ccc(-c2nc(C3CCCCC3)cnc2N)cc1F)c1cccc(Cl)c1
Problem: // smallest IC50 at index 0, largest at the end Answer by listing the labels in the requested order.
Solution: Q, R, P
(Q: 0.0199 nM, R: 0.0505 nM, P: 0.944 nM)

1 = CNC[C@@H](NC(=O)c1ccc(-c2nc(C3CCOCC3)cnc2N)cc1F)c1cc(F)cc(Cl)c1
2 = Nc1ncc(C2CCOCC2)nc1-c1ccc(C(=O)N[C@H](CO)c2cccc(F)c2)c(F)c1
Problem: Determine, for 1 and 2 , which has the greater value of IC50. Label of pick, please.
Solution: 2
(2: 0.429 nM, 1: 0.0143 nM)
